Measured DR/DR LNA of individual entries
- assay-details: Probe fluorescence ratio response to linolenic acid relative to ADIFAB2
- Type: binding
- particulars: response relative to ADIFAB2
No unit in the answer, please; the number alone is enough.

60N, 72A (protein, listed as Rattus norvegicus, PEPTIDE (1)...(131) wild-type rat intestinal fatty acid binding protein) AFDGTWKVDRNENYEKFMEKMGINVVKRKLGAHDNLKLTITQEGNKFTVKESSNFRNIDNVFELGVDFAYSAADGTELTGTWTMEGNKLVGKFKRVDNGKELIAVREISGNELIQTYTYEGVEAKRIFKKE | 1.59
51N1, 72A (protein, listed as Rattus norvegicus, PEPTIDE (1)...(131) wild-type rat intestinal fatty acid binding protein) AFDGTWKVDRNENYEKFMEKMGINVVKRKLGAHDNLKLTITQEGNKFTVKNSSNFRNIDVVFELGVDFAYSAADGTELTGTWTMEGNKLVGKFKRVDNGKELIAVREISGNELIQTYTYEGVEAKRIFKKE | 1.39
115S1, 72A (protein, listed as Rattus norvegicus, PEPTIDE (1)...(131) wild-type rat intestinal fatty acid binding protein) AFDGTWKVDRNENYEKFMEKMGINVVKRKLGAHDNLKLTITQEGNKFTVKESSNFRNIDVVFELGVDFAYSAADGTELTGTWTMEGNKLVGKFKRVDNGKELIAVREISGNELISTYTYEGVEAKRIFKKE | 1.51
11Q, 72A (protein, listed as Rattus norvegicus, PEPTIDE (1)...(131) wild-type rat intestinal fatty acid binding protein) AFDGTWKVDRQENYEKFMEKMGINVVKRKLGAHDNLKLTITQEGNKFTVKESSNFRNIDVVFELGVDFAYSAADGTELTGTWTMEGNKLVGKFKRVDNGKELIAVREISGNELIQTYTYEGVEAKRIFKKE | 1.582

Entry 14L 72G 117V (protein, listed as Rattus norvegicus, PEPTIDE (1)...(131) wild-type rat intestinal fatty acid binding protein) AFDGTWKVDRNENLEKFMEKMGINVVKRKLGAHDNLKLTITQEGNKFTVKESSNFRNIDVVFELGVDFAYSGADGTELTGTWTMEGNKLVGKFKRVDNGKELIAVREISGNELIQTVTYEGVEAKRIFKKE has what DR/DR LNA?
0.513

Entry 14Q, 72A (protein, listed as Rattus norvegicus, PEPTIDE (1)...(131) wild-type rat intestinal fatty acid binding protein) AFDGTWKVDRNENQEKFMEKMGINVVKRKLGAHDNLKLTITQEGNKFTVKESSNFRNIDVVFELGVDFAYSAADGTELTGTWTMEGNKLVGKFKRVDNGKELIAVREISGNELIQTYTYEGVEAKRIFKKE has what DR/DR LNA?
0.52

Source of measurements: patent US20060257938A1
